system: SK-MEL-5 melanoma; test: NCI-60 one-dose screen, 48 h (100 = growth as untreated, 0 = no growth, -100 = all killed); conditions: 10 µM unless noted
About 83,000 compounds went through this panel and 20% of them were active in at least one assay; those are over-represented in the sample as a whole.
observed_property: growth (%)
Return type: number; implicit unit %.

Q: What value of growth has been recorded for this entry: CC(=O)OC[C@@]1(C)C2CC[C@]3(C)C(CC=C4C5CC(C)(C)CC[C@]5(C(=O)Nc5cccc(C)c5)CC[C@]43C)[C@@]2(C)C[C@@H](OC(C)=O)[C@@H]1OC(C)=O (stereo partly drawn)
Ans: 3.77

Q: What value of growth has been recorded for this entry: "CC(C)CSc1nc(NCCc2c[nH]c3ccccc23)c(C#N)c(-c2ccccc2)n1"
Ans: 27.3

Q: What value of growth has been recorded for this entry: "COc1ccc(-c2cc(C(=O)NCc3ccccc3)nn2-c2ccc(S(C)(=O)=O)cc2)cc1OC"
Ans: 97.1

Q: What value of growth has been recorded for this entry: "CCCCCCCCc1ccc(S(=O)(=O)Nc2ccc(CC)cc2C(=O)O)cc1"
Ans: 80.3

Q: What value of growth has been recorded for this entry: "COc1ccc(C2(SCCNCc3cc(N(C)C)ccn3)c3ccccc3C=Cc3ccccc32)cc1"
Ans: -20.3

Q: What value of growth has been recorded for this entry: Cc1nc(Nc2ccccn2)sc1C(=O)CC(SCC(=O)Nc1ccc(Cl)cc1)c1ccccc1F (stereo not drawn)
Ans: 4.3

Q: What value of growth has been recorded for this entry: "CN(C)c1nc(NCCNS(=O)(=O)c2ccc(C(=O)/C=C/c3ccc(C(F)(F)F)cc3)cc2)nc(Nc2ccc(F)cc2)n1"
Ans: 16.2

Q: What value of growth has been recorded for this entry: COc1ccc(NC(=O)[C@H](C)N)cc1C(=O)Nc1cccc(C2CC(=O)c3c(cc(OC)c(OC)c3OC)O2)c1 (stereo partly drawn)
Ans: 76.9

---

system: RXF 393 renal; experiment: NCI-60 one-dose screen, 48 h; settings: 10 µM unless noted
About 83,000 compounds went through this panel and 20% of them were active in at least one assay; those are over-represented in the sample as a whole. The source made the active and inactive calls. Rule for the calls: active = growth percent below 10; inactive = the rest.
Choose one outcome from this list and give only that: active, inactive

Q: Hello, I am checking results. What call was entered for CC(=O)OC[C@@]1(C)C2CC[C@]3(C)C(CC=C4C5CC(C)(C)CC[C@]5(C(=O)Nc5ccc(F)cc5)CC[C@]43C)[C@@]2(C)C[C@@H](OC(C)=O)[C@@H]1OC(C)=O (some centres undefined) ?
Ans: inactive

Q: Hello, I am checking results. What call was entered for "COc1cc2oc(-c3cccc(C(=O)Nc4cccc([N+](=O)[O-])c4)c3)cc(=O)c2c(OC)c1OC" ?
Ans: active

Q: Hello, I am checking results. What call was entered for "O=C1NC(=O)c2c1c1c3cc(Br)ccc3[nH]c1c1oc3ccc(F)cc3c21" ?
Ans: active

Q: Hello, I am checking results. What call was entered for CC12CC[C@@H]3[C@]4(C)COC(c5cn[nH]c5-c5cccc(Br)c5)O[C@@H]4CC[C@@]3(C)[C@@H]1CC(C1=CCOC1=O)O2 (some centres undefined) ?
Ans: active

---

system: T-47D breast; experiment: NCI-60 one-dose screen, 48 h; conditions: 10 µM unless noted
The panel holds about 83,000 compounds, 20% with a hit somewhere; the sample as a whole holds those more often. Activity calls are given as the source filed them. How the source made its calls: active means growth percent below 10; inactive means the rest.
Choose one outcome from this list and give only that: class 1 = active, class 0 = inactive

Q: Hello, I am checking results. What call was entered for "C/C(=N\N=C\c1cc([N+](=O)[O-])ccc1Cl)c1ccc2c(c1)Nc1ccccc1S2" ?
Ans: class 0

Q: Hello, I am checking results. What call was entered for "Cn1cc(NC(=O)c2cc(NC(=O)c3ccc(/C=C/c4ccccc4)cc3)cn2C)cc1C(=O)NCCCN1CCOCC1" ?
Ans: class 0

Q: Hello, I am checking results. What call was entered for CC1(c2cc3cc(Br)ccc3oc2=O)NC(=O)c2c(/C=C/C(=O)OC3CC4CCC3(C)C4(C)C)cccc2N1 (centres undefined) ?
Ans: class 0

Q: Hello, I am checking results. What call was entered for "COc1ccc2nc(Nc3cccc(NC(=O)c4ccc(CN5CCCN(C)CC5)c(C(F)(F)F)c4)c3)ccc2c1" ?
Ans: class 1
